system-tested: GLP-1 Receptor (GLP1R) (Homo sapiens)
Construct: host or cells: HEK293/GLP1R/CRE-LUC
Sequence (P43220 24-463): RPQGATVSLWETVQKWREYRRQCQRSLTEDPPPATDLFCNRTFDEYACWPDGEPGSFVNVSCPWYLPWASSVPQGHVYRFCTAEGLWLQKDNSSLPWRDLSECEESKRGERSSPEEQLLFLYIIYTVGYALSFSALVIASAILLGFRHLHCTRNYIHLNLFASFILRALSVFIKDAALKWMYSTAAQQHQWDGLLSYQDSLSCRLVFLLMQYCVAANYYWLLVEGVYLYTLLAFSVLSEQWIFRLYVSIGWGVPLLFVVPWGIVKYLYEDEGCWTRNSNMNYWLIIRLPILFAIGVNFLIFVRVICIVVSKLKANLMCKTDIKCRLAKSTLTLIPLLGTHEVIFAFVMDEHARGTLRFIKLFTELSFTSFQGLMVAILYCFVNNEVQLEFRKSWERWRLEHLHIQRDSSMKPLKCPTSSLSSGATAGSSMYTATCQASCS
protocol-summary: GLP-1R agonist cAMP stimulation assay (Method 3)
Format: cell-based
experimental-setup: HEK293/GLP1R/CRE-LUC cells (HDB), Method 3, 30 min incubation; read-out: GLP1R cAMP Stimulation DR: EC50 (nM) [Species: Human, Assay Cell Line: HDB]
Counter-ions that a name gives are not always drawn.
# Lookup of reported EC50 keyed by entry

# annotated cases, reported EC50 shown
Find the recorded EC50 belonging to CCP(=O)(CC)c1ccc(-n2ccn(-c3c4c(nn3-c3cc(C)c(F)c(C)c3)CCN(C(=O)c3cc5cc(C6CCOCC6)ccc5n3[C@@]3(c5noc(=O)[nH]5)C[C@@H]3C)[C@H]4C)c2=O)cc1N(C)C [Compound 117a, HCl salt] and report it.
0.2 to 0.5 nM

Find the recorded EC50 belonging to Cc1cc(-n2nc3c(c2-n2ccn(-c4ccc(P(=O)(C(C)C)C(C)C)cc4)c2=O)[C@H](C)N(C(=O)c2cc4cc(C5CCOCC5)ccc4n2[C@@]2(c4noc(=O)[nH]4)C[C@@H]2C)CC3)cc(C)c1F [Compound 128a] and report it.
< 0.1 nM

Find the recorded EC50 belonging to CNc1cc(-n2ccn(-c3c4c(nn3-c3cc(C)c(F)c(C)c3)CCN(C(=O)c3cc5cc(C6CCOCC6)ccc5n3[C@@]3(c5noc(=O)[nH]5)C[C@@H]3C)[C@H]4C)c2=O)ccc1P(=O)(C(C)C)C(C)C [Compound 141a] and report it.
< 0.1 nM

Could you now consider this next molecule?
Find the recorded EC50 belonging to CNc1cc(-n2ccn(-c3c4c(nn3-c3cc(C)c(F)c(C)c3)CCN(C(=O)c3cc5cc(C6CCOCC6)ccc5n3[C@@]3(c5noc(=O)[nH]5)C[C@@H]3C)[C@H]4C)c2=O)ccc1P(=O)(C1CC1)C1CC1 [Compound 132a] and report it.
0.1 to 0.2 nM
